Test Target: T1, Human CD19-his protein (human, UniProt P15391 20-291)
T1 construct: bought protein; also called human CD19 protein; recombinant human CD19-His; not shown: His tag
T1 sequence (looked up): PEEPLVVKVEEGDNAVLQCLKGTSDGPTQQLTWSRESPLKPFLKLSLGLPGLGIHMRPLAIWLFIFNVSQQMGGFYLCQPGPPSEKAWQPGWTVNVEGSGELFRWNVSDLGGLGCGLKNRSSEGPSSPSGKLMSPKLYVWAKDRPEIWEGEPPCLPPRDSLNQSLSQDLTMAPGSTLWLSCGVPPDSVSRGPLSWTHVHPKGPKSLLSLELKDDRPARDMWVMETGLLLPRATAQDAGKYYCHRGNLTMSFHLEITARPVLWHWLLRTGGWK
Procedure Text: ELISA, antibody at 0.01 nM
Protocol: Human CD19-his protein (purchased from ACROBiosystems, catalog number: CD9-H52H2) was diluted with PBS to a final concentration of 4 μg/mL, and then added to a 96-well ELISA plate at 100 μl/well. […] The OD450 nm values were read by an ELISA microplate reader (Multimode Plate Reader, EnSight, purchased from Perkin Elmer).
Readout: OD450
Enter the number alone.

Binder	OD450
F3.23.10 (antibody, human IgG1, V domains shown, human-murine chimeric antibody, human IgG1) VH: EFQLQQSGPELVKPGASVKISCKASDYSFTDYNMNWVKQSNGASLEWIGIINPNFGSTSYNQKFKGKATLTVDQSSSTAFMQLNSLTSEDSAVYYCARSEYYGSSGFAYWGQGTLVTVSA VL: DVVVTQTPLSLPVSFGDQVSISCRSSQSLVNSYGNTYLSWYLHKPGQSPQLLIYGISNRFSGVPDRFSGSGSGTDFTLKITTIKPEDLGMYYCLQGTHQPWTFGGGTKLEIK	0.09
F3.13.2 (antibody, human IgG1, V domains shown, human-murine chimeric antibody, human IgG1) VH: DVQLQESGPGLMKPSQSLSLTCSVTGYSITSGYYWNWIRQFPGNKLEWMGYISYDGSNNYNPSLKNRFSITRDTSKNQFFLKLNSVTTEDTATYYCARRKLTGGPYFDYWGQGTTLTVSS VL: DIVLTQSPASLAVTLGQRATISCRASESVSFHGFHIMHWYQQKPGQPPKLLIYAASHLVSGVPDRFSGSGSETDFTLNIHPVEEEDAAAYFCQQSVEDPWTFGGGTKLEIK	0.05

Proceeding to the next binder to report its OD450.
Need OD450, item F4.82.11 (antibody, human IgG1, V domains shown, human-murine chimeric antibody, human IgG1) VH: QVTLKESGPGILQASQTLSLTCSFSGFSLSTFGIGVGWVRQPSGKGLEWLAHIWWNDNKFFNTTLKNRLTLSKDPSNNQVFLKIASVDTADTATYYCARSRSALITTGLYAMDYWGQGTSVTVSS VL: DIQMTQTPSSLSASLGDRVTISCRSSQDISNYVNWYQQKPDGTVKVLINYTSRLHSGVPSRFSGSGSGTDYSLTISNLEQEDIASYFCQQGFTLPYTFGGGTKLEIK 0.24

All values here come from patent US20250042994A1.
